Sourced from ChEMBL document CHEMBL3864148

Measured inhibition accompanies every entry in the list below.
Tested target: DNA-PK/Ku70/Ku85 (Homo sapiens) (UniProt P78527+P12956+P13010)
Assay details: Inhibition of human DNA-PK/Ku70/Ku85 at 10 uM using EPPLSQEAFADLWKK as substrate by HTRF assay relative to control
Your answer should be a plain number; it is taken to be in %.

Use these answered entries as a reference point.
O=c1nc(N2CCOCC2)oc2c1cc(-c1cccc3c1sc1ccccc13)c1ccccc12: 0
NC(=O)c1ccc(-c2cc3c(=O)nc(N4CCOCC4)oc3c3ccccc23)cc1: 10
O=c1nc(N2CCOCC2)oc2ccc3cc(-c4cccc5c4sc4ccccc45)ccc3c12: 0
O=c1nc(N2CCOCC2)oc2ccc3cc(-c4ccccc4)ccc3c12: 0
O=c1nc(N2CCOCC2)oc2c1cc(-c1ccccc1)c1ccccc12: 22

Now, please, on to the next molecule.
Request: Would you kindly share the measured inhibition for COc1ccc(-c2cc3c(=O)nc(N4CCOCC4)oc3c3ccccc23)cc1 ?
Response: 19

----------
Measured inhibition accompanies every entry in the list below.
Tested target: Phosphatidylinositol 4,5-bisphosphate 3-kinase catalytic subunit beta isoform (Homo sapiens)
Assay details: Inhibition of p110beta (unknown origin) assessed as decrease in ATP consumption at 10 uM after 60 mins by Kinase-Glo assay relative to control
Sequence (P42338 whole entry, looked up, canonical isoform): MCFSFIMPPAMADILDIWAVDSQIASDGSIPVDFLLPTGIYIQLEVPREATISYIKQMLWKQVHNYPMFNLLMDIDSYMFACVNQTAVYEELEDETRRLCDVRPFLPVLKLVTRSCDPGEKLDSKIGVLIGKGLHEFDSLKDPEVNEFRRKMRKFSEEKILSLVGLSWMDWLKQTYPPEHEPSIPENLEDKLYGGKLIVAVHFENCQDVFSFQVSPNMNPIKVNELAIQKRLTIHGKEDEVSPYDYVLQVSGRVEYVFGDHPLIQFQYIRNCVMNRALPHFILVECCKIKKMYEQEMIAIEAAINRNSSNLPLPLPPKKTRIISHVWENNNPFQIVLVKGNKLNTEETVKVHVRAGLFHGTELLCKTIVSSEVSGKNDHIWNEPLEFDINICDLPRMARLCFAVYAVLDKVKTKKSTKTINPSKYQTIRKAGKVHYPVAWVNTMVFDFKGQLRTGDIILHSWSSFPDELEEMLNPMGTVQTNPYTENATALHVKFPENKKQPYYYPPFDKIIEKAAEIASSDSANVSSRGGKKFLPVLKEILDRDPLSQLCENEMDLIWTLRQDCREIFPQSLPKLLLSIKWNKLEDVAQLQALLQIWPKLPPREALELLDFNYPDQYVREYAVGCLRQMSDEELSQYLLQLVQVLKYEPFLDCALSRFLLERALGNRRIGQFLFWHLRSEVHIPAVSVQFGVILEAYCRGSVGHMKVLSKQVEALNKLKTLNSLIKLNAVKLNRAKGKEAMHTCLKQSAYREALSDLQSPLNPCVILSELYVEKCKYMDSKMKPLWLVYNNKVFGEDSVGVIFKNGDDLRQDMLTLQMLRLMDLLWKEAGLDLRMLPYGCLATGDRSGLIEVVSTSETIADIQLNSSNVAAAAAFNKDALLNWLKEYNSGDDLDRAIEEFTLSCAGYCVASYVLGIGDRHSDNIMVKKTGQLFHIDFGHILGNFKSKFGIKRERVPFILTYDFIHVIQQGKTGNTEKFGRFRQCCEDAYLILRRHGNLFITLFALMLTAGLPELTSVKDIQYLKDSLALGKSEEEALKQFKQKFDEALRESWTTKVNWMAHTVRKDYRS
Your answer should be a plain number; it is taken to be in %.

Use these answered entries as a reference point.
O=c1nc(N2CCOCC2)oc2ccc3ccccc3c12: 23
O=c1nc(N2CCOCC2)oc2ccc3cc(-c4ccc(Cl)cc4)ccc3c12: -1
O=c1nc(N2CCOCC2)oc2c1ccc1ccccc12: 15
O=c1nc(N2CCOCC2)oc2c1cc(-c1ccccc1)c1ccccc12: 10
O=c1nc(N2CCOCC2)oc2ccc3cc(-c4ccccc4)ccc3c12: -3

Request: Would you kindly share the measured inhibition for COc1ccc(-c2cc3c(=O)nc(N4CCOCC4)oc3c3ccccc23)cc1 ?
Response: 42

Request: Would you kindly share the measured inhibition for O=c1nc(N2CCOCC2)oc2c1cc(-c1cccc3c1sc1ccccc13)c1ccccc12 ?
Response: 11

Request: Would you kindly share the measured inhibition for O=c1nc(N2CCOCC2)oc2c(-c3ccc(Cl)cc3)c3ccccc3cc12 ?
Response: 0

Request: Would you kindly share the measured inhibition for O=c1nc(N2CCOCC2)oc2c1cc(-c1cccc3c1oc1ccccc13)c1ccccc12 ?
Response: 22

Request: Would you kindly share the measured inhibition for COc1ccc(-c2ccc3c(ccc4oc(N5CCOCC5)nc(=O)c43)c2)cc1 ?
Response: 0

----------
Tested target: Phosphatidylinositol 4,5-bisphosphate 3-kinase catalytic subunit alpha isoform (Homo sapiens)
Sequence (P42336 whole entry, canonical isoform): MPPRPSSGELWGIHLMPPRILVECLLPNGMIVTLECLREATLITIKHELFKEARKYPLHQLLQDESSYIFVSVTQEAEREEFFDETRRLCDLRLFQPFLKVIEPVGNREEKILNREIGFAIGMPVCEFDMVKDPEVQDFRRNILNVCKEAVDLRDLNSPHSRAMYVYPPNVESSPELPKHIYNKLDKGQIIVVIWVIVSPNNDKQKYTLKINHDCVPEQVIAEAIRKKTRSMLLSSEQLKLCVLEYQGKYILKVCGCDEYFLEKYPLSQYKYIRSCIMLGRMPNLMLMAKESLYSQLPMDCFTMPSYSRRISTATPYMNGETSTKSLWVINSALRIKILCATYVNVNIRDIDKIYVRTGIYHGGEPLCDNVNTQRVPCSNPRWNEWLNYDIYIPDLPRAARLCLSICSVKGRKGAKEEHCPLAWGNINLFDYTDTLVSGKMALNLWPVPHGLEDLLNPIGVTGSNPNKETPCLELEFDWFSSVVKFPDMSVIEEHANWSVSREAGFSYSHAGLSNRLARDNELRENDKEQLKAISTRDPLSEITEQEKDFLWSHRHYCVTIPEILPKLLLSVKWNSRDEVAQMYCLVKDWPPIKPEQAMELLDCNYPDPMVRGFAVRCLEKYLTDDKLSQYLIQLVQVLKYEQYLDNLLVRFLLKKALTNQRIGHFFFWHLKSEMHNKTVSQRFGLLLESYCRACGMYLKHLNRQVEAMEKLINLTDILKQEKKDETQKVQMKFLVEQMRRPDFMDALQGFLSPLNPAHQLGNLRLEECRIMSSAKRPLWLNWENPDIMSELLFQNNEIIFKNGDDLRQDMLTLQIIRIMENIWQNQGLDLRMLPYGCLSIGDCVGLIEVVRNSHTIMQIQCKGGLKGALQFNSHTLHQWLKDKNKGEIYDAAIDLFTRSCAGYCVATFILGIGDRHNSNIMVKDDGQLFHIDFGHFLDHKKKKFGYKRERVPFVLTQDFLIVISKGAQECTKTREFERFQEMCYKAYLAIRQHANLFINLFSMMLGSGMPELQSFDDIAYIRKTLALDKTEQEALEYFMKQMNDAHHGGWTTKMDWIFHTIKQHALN
Assay details: Inhibition of p110alpha (unknown origin) assessed as decrease in ATP consumption at 10 uM after 60 mins by Kinase-Glo assay relative to control
Measured inhibition accompanies every entry in the list below.
Your answer should be a plain number; it is taken to be in %.

Use these answered entries as a reference point.
COc1ccc(-c2ccc3c(ccc4oc(N5CCOCC5)nc(=O)c43)c2)cc1: 0
O=c1nc(N2CCOCC2)oc2c1cc(-c1ccccc1)c1ccccc12: 35
O=c1nc(N2CCOCC2)oc2ccc3cc(-c4ccc(Cl)cc4)ccc3c12: -5
O=c1nc(N2CCOCC2)oc2c1cc(-c1cccc3c1oc1ccccc13)c1ccccc12: 9
O=c1nc(N2CCOCC2)oc2ccc3cc(-c4ccccc4)ccc3c12: -2

Request: Would you kindly share the measured inhibition for O=c1nc(N2CCOCC2)oc2ccc3ccccc3c12 ?
Response: 4

Request: Would you kindly share the measured inhibition for COc1ccc(-c2cc3c(=O)nc(N4CCOCC4)oc3c3ccccc23)cc1 ?
Response: 20

Request: Would you kindly share the measured inhibition for O=c1nc(N2CCOCC2)oc2c(-c3ccc(Cl)cc3)c3ccccc3cc12 ?
Response: 8

Request: Would you kindly share the measured inhibition for O=c1nc(N2CCOCC2)oc2c1ccc1ccccc12 ?
Response: 22

Request: Would you kindly share the measured inhibition for O=c1nc(N2CCOCC2)oc2c1cc(-c1cccc3c1sc1ccccc13)c1ccccc12 ?
Response: 23

----------
Tested target: DNA-PK/Ku70/Ku85 (Homo sapiens) (UniProt P78527+P12956+P13010)
Assay details: Inhibition of human DNA-PK/Ku70/Ku85 at 10 uM using EPPLSQEAFADLWKK as substrate by HTRF assay relative to control
Classify as follows. Reported inhibition greater than or equal to 8%: Satisfied. Reported inhibition below: Not satisfied.

Consider the following illustrative entries.
O=c1nc(N2CCOCC2)oc2ccc3cc(-c4cccc5c4oc4ccccc45)ccc3c12: Not satisfied
O=c1nc(N2CCOCC2)oc2c1cc(-c1cccc3ccccc13)c1ccccc12: Satisfied
O=c1nc(N2CCOCC2)oc2c1cc(-c1ccc(Cl)cc1)c1ccccc12: Satisfied

Pending compound:
Request: Confirm if inhibition reported for the compound O=c1nc(N2CCOCC2)oc2c1cc(-c1cccc3c1oc1ccccc13)c1ccccc12 is 8% or above.
Response: Satisfied

----------
Tested target: cGMP-inhibited 3',5'-cyclic phosphodiesterase 3A (Homo sapiens) (UniProt Q14432)
Sequence (Q14432 whole entry): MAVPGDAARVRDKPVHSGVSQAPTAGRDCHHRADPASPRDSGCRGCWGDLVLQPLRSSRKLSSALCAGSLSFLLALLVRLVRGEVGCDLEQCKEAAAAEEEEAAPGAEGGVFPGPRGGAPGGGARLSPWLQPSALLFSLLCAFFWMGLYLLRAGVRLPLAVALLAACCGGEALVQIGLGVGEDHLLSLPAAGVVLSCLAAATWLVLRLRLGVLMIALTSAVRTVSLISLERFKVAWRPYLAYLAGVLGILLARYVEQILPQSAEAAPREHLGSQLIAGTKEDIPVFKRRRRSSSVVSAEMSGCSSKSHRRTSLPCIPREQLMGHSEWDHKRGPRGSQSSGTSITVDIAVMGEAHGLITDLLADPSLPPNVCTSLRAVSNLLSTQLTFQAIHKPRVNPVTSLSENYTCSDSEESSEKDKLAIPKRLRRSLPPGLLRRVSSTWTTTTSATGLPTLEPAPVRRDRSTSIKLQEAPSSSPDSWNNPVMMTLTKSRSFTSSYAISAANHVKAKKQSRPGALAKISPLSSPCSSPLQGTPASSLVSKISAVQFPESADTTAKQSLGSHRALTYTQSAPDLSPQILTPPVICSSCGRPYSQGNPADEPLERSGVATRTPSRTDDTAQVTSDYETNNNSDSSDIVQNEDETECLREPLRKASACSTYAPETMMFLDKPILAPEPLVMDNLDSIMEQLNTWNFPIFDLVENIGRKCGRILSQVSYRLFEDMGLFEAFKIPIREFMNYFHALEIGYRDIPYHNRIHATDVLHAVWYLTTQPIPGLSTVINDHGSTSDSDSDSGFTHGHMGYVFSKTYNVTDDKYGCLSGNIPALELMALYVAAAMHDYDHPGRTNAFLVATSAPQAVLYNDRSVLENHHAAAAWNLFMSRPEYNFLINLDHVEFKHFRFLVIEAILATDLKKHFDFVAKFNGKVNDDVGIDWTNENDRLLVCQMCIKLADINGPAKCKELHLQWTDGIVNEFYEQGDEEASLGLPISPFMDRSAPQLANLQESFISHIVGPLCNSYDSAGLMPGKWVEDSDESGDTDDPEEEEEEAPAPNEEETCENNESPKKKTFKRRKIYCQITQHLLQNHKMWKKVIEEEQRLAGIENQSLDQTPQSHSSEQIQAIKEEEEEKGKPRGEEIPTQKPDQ
Assay details: Inhibition of PDE3A (unknown origin) at 10 uM relative to control
Classify as follows. Reported inhibition greater than or equal to 10%: true. Reported inhibition below: false.

Consider the following illustrative entries.
COc1ccc(-c2cc3c(=O)nc(N4CCOCC4)oc3c3ccccc23)cc1: true
O=c1nc(N2CCOCC2)oc2c1cc(-c1cccc3ccccc13)c1ccccc12: true
O=c1nc(N2CCOCC2)oc2c1cc(-c1ccc(CO)cc1)c1ccccc12: true
NC(=O)c1ccc(-c2cc3c(=O)nc(N4CCOCC4)oc3c3ccccc23)cc1: false
O=c1nc(N2CCOCC2)oc2c1cc(-c1cccc3c1sc1ccccc13)c1ccccc12: true

Request: Confirm if inhibition reported for the compound O=c1nc(N2CCOCC2)oc2ccc3cc(-c4cccc5c4oc4ccccc45)ccc3c12 is 10% or above.
Response: true

Request: Confirm if inhibition reported for the compound Nc1cccc(-c2cc3c(=O)nc(N4CCOCC4)oc3c3ccccc23)c1 is 10% or above.
Response: false

Request: Confirm if inhibition reported for the compound O=c1nc(N2CCOCC2)oc2c1cc(-c1ccc(Cl)cc1)c1ccccc12 is 10% or above.
Response: false

Request: Confirm if inhibition reported for the compound O=c1nc(N2CCOCC2)oc2c1cc(-c1cccc3c1oc1ccccc13)c1ccccc12 is 10% or above.
Response: true

Request: Confirm if inhibition reported for the compound O=c1nc(N2CCOCC2)oc2c1cc(-c1ccccc1)c1ccccc12 is 10% or above.
Response: true

----------
Measured IC50 accompanies every entry in the list below.
Tested target: Phosphatidylinositol 4,5-bisphosphate 3-kinase catalytic subunit beta isoform (Homo sapiens)
Assay details: Inhibition of p110beta (unknown origin) assessed as decrease in ATP consumption after 60 mins by Kinase-Glo assay
Sequence (P42338 whole entry, canonical isoform): as the sequence (P42338 whole entry, looked up, canonical isoform) above

COc1ccc(-c2c3ccccc3cc3c(=O)nc(N4CCOCC4)oc23)cc1: > 50 µM

Now, please, on to the next molecule.
Request: Would you kindly share the measured IC50 for O=c1nc(N2CCOCC2)oc2c(-c3ccccc3)c3ccccc3cc12 ?
Response: > 50 µM

----------
Tested target: Phosphatidylinositol 4,5-bisphosphate 3-kinase catalytic subunit gamma isoform (Homo sapiens)
Assay details: Inhibition of p110gamma (unknown origin) assessed as decrease in ATP consumption after 60 mins by Kinase-Glo assay
pIC50: −log10 of the molar value.
Measured pIC50 accompanies every entry in the list below.

COc1ccc(-c2c3ccccc3cc3c(=O)nc(N4CCOCC4)oc23)cc1: < 4.30

Now, please, on to the next compound.
Request: Would you kindly share the measured pIC50 for O=c1nc(N2CCOCC2)oc2c(-c3ccccc3)c3ccccc3cc12 ?
Response: < 4.30

----------
Measured inhibition accompanies every entry in the list below.
Tested target: Phosphatidylinositol 4,5-bisphosphate 3-kinase catalytic subunit delta isoform (Homo sapiens) (UniProt O00329)
Sequence (O00329 whole entry, canonical isoform): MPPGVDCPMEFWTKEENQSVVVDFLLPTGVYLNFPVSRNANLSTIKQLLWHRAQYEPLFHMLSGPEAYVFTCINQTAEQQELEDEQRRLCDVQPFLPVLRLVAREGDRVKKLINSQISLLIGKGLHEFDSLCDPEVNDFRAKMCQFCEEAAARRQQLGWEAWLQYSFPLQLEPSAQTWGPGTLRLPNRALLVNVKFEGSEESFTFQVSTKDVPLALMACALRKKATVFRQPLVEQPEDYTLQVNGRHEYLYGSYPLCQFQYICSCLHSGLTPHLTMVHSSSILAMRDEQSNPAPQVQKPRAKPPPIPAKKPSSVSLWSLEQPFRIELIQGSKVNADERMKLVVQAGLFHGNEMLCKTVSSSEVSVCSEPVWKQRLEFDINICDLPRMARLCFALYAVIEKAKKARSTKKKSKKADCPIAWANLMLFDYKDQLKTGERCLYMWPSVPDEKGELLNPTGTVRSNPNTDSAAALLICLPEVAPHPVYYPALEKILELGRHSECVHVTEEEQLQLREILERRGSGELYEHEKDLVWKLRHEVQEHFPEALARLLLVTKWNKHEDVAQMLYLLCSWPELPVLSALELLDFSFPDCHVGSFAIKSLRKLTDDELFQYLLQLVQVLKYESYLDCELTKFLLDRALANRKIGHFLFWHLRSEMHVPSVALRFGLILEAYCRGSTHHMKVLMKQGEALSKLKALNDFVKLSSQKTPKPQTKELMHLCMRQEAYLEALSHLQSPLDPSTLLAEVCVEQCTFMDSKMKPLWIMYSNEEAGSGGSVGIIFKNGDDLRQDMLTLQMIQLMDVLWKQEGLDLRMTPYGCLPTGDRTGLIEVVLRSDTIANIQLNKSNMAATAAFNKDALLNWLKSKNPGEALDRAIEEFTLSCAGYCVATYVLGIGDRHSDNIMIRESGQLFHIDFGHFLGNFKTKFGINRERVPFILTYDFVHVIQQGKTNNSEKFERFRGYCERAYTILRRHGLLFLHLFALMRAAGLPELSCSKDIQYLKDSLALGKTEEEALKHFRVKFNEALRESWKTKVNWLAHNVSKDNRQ
Assay details: Inhibition of p110delta (unknown origin) assessed as decrease in ATP consumption at 10 uM after 60 mins by Kinase-Glo assay relative to control
Your answer should be a plain number; it is taken to be in %.

O=c1nc(N2CCOCC2)oc2c1cc(-c1ccccc1)c1ccccc12: 3
O=c1nc(N2CCOCC2)oc2cc3ccccc3cc12: -10

Request: Would you kindly share the measured inhibition for COc1ccc(-c2ccc3c(ccc4oc(N5CCOCC5)nc(=O)c43)c2)cc1 ?
Response: 0

Request: Would you kindly share the measured inhibition for COc1ccc(-c2cc3c(=O)nc(N4CCOCC4)oc3c3ccccc23)cc1 ?
Response: 9

Request: Would you kindly share the measured inhibition for O=c1nc(N2CCOCC2)oc2c(-c3ccc(Cl)cc3)c3ccccc3cc12 ?
Response: 52

Request: Would you kindly share the measured inhibition for O=c1nc(N2CCOCC2)oc2c1ccc1ccccc12 ?
Response: 12

----------
Tested target: DNA-PK/Ku70/Ku85 (Homo sapiens, UniProt P12956+P13010+P78527)
Assay details: Inhibition of human DNA-PK/Ku70/Ku85 using EPPLSQEAFADLWKK as substrate by HTRF assay relative to control
Measured attribute: IC50 (µM)
Your answer should be a plain number; it is taken to be in µM.

Request: Would you kindly share the measured IC50 for O=c1nc(N2CCOCC2)oc2ccc3ccccc3c12 ?
Response: 38.8

Request: Would you kindly share the measured IC50 for O=c1nc(N2CCOCC2)oc2c(-c3ccccc3)c3ccccc3cc12 ?
Response: 78.1

Request: Would you kindly share the measured IC50 for COc1ccc(-c2c3ccccc3cc3c(=O)nc(N4CCOCC4)oc23)cc1 ?
Response: 11.9

Request: Would you kindly share the measured IC50 for O=c1nc(N2CCOCC2)oc2c1ccc1ccccc12 ?
Response: 10
